The measurements presented in this section are drawn from patent US20250121013A1.

- Test system: ART24
- test method notes: Antibiotic susceptibility of ART24, MIC, VetMIC panels (Table 2)
- Type: cell-based, Bacillus amyloliquefaciens
- experimental setup: Bacillus amyloliquefaciens; 24 hr at 37° C.; average results from N = 6; read-out: ART24 MIC
measured parameter: MIC (µg/mL)
Give the value in µg/mL but do not write µg/mL after it.

Would you kindly share the measured MIC for "[H]/N=C(/N)N[C@H]1[C@H](O)[C@@H](O)[C@H](O[C@@H]2O[C@@H](C)[C@](O)(C=O)[C@H]2O[C@@H]2O[C@@H](CO)[C@H](O)[C@@H](O)[C@@H]2NC)[C@@H](N/C(N)=N\[H])[C@@H]1O" ?
4

====

// reported MIC for each item listed
- Test system: ART24
- test method notes: Antibiotic susceptibility of ART24, MIC, VetMIC panels (Table 2)
- Assay type: cell-based, Bacillus amyloliquefaciens
- experimental setup: Bacillus amyloliquefaciens; 24 hr at 37° C.; average results from N = 6; read-out: ART24 MIC

Look over these answered cases.
substance_smiles=CCC[C@@H]1C[C@@H](C(=O)N[C@@H]([C@H]2O[C@H](SC)[C@H](O)[C@@H](O)[C@H]2O)[C@H](C)Cl)N(C)C1 value_measured="0.5 to 1 µg/mL"
substance_smiles=CN(C)[C@@H]1C(O)=C(C(N)=O)C(=O)[C@@]2(O)C(O)=C3C(=O)c4c(O)cccc4[C@@](C)(O)[C@H]3C[C@@H]12 value_measured="4 µg/mL"
substance_smiles=COc1cc(Cc2cnc(N)nc2N)cc(OC)c1OC value_measured="≤ 0.12 µg/mL"
substance_smiles=CC[C@H]1OC(=O)[C@H](C)[C@@H](O[C@H]2C[C@@](C)(OC)[C@@H](O)[C@H](C)O2)[C@H](C)[C@@H](O[C@@H]2O[C@H](C)C[C@H](N(C)C)[C@H]2O)[C@](C)(O)C[C@@H](C)C(=O)[C@H](C)[C@@H](O)[C@]1(C)O value_measured="0.12 µg/mL"
substance_smiles=CC1(C)S[C@@H]2[C@H](NC(=O)[C@H](N)c3ccccc3)C(=O)N2[C@H]1C(=O)O value_measured="0.25 µg/mL"
substance_smiles=CC(=O)NC[C@H]1CN(c2ccc(N3CCOCC3)c(F)c2)C(=O)O1 value_measured="0.5 µg/mL"
substance_smiles=O=C(O)c1cn(C2CC2)c2cc(N3CCNCC3)c(F)cc2c1=O value_measured="≤ 0.25 µg/mL"
substance_smiles=O=C(N[C@H](CO)[C@H](O)c1ccc([N+](=O)[O-])cc1)C(Cl)Cl value_measured="4 µg/mL"

Next:
Name the reported MIC value associated with the compound "CO[C@H]1/C=C/O[C@@]2(C)Oc3c(C)c(O)c4c(O)c(c(/C=N/N5CCN(C)CC5)c(O)c4c3C2=O)NC(=O)/C(C)=C\C=C\[C@H](C)[C@H](O)[C@@H](C)[C@@H](O)[C@@H](C)[C@H](OC(C)=O)[C@@H]1C"
0.5 µg/mL

====

Catalogue of MIC readings, one per entry.
- Tested on: ART24
- test method notes: Antibiotic susceptibility of ART24 lots and cell banks, MIC following EFSA testing recommendations (Table 3)
- Format: cell-based, Bacillus amyloliquefaciens
- experimental setup: Bacillus amyloliquefaciens; ART24 source: lyophilized lot CO-33-12A2; read-out: MIC, CO-33-12A2
Value expressed in µg/mL; do not type the unit.

compound="[H]/N=C(/N)N[C@H]1[C@H](O)[C@@H](O)[C@H](O[C@@H]2O[C@@H](C)[C@](O)(C=O)[C@H]2O[C@@H]2O[C@@H](CO)[C@H](O)[C@@H](O)[C@@H]2NC)[C@@H](N/C(N)=N\\[H])[C@@H]1O [Streptomycin]" measured_parameter=MIC value_measured=1
compound="CCc1c(Cl)c(O)c(Cl)c(O)c1C(=O)O[C@H]1[C@H](O)[C@H](OC)[C@H](OC/C2=C\\C=C\\C[C@H](O)/C(C)=C/[C@H](CC)[C@@H](O[C@@H]3OC(C)(C)[C@@H](OC(=O)C(C)C)[C@H](O)[C@@H]3O)/C(C)=C/C(C)=C/C[C@@H]([C@@H](C)O)OC2=O)O[C@@H]1C [Fidaxomicin]" measured_parameter=MIC value_measured=4
compound="O=C(N[C@H](CO)[C@H](O)c1ccc([N+](=O)[O-])cc1)C(Cl)Cl [Chloramphenicol]" measured_parameter=MIC value_measured=2

Fill in: MIC of CC[C@H]1OC(=O)[C@H](C)[C@@H](O[C@H]2C[C@@](C)(OC)[C@@H](O)[C@H](C)O2)[C@H](C)[C@@H](O[C@@H]2O[C@H](C)C[C@H](N(C)C)[C@H]2O)[C@](C)(O)C[C@@H](C)C(=O)[C@H](C)[C@@H](O)[C@]1(C)O [Erythromycin] is ___
0.06
